RUN_DESCRIPTION: Oral bioavailability in Sprague-Dawley rat measured upto 24 hrs by LC-MS/MS analysis
Type: ADME, organism-based
APPLIED_CONDITIONS: in vivo
PROPERTY: bioavailability (%)

>  <COMPOUND>
COc1cc(C(=O)OCCCCNC(=N)N)cc(OC)c1O [LEONURINE]

>  <ASSAY_VALUE>
1.78

$$$$

###

RUN_DESCRIPTION: Cmax in Sprague-Dawley rat at 10 mg/kg, po measured upto 24 hrs by LC-MS/MS analysis
Format: ADME, organism-based
Set-up: route oral, dose 10 mg/kg, time <=24
APPLIED_CONDITIONS: in vivo
PROPERTY: Cmax (ng/mL)

>  <STRUCTURE_SMILES_STRING>
COc1cccc(C(=O)OCCCCNC(=N)N)c1OC

>  <PROPERTY>
Cmax

>  <ASSAY_VALUE>
621

$$$$
